Values from patent US6849648B2

Reported IC50 is given for each of the following compounds.
SYSTEM_UNDER_TEST: UniProt:P08253
Sequence (P08253 110-660, species assumed): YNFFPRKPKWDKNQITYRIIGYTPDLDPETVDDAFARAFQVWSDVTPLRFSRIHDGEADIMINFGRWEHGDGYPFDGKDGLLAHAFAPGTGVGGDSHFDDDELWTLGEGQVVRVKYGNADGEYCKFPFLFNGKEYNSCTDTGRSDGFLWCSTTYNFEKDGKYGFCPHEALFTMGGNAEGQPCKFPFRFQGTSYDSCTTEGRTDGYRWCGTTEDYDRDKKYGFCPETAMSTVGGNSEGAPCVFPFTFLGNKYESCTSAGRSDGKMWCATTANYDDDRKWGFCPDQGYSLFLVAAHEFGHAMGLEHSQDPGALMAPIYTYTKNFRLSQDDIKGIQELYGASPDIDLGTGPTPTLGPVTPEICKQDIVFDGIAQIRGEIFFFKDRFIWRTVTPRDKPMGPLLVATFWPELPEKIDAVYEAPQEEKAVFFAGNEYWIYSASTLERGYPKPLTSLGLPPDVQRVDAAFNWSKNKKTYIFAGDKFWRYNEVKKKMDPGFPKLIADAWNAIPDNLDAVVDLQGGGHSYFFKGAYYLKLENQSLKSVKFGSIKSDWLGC
ASSAY_DETAILS: Thiopeptolide hydrolysis assay, full length Gelatinase A
Format: biochemical
SETUP_CONDITIONS: Table 3; full-length MMP02

Here is how some compounds turned out for IC50.
COc1ccc(CN2C(=O)Nc3ccc(C#CCc4ccccc4)cc3S2(=O)=O)cc1 | > 30 µM
CN1c2ccc(C#CCc3ccccc3)cc2C(=O)N(Cc2ccc(C(=O)O)cc2)[S+]1[O-] (stereo not shown) | > 30 µM
CN1C(=O)N(Cc2ccccc2)S(=O)(=O)c2cc(C#CCc3ccccc3)ccc21 | > 30 µM
O=C(O)c1ccc(CN2C(=O)Nc3ccc(C#CCc4ccccc4)cc3S2(=O)=O)cc1 | > 100 µM
CN1c2ccc(C#CCc3ccccc3)cc2C(=O)N(Cc2ccc(C(=O)O)cc2)S1(=O)=O | > 30 µM
CN1C(=O)N(Cc2ccc(C(=O)O)cc2)S(=O)(=O)c2cc(C#CCc3ccccc3)ccc21 | > 30 µM

# evaluate next
Field: IC50 (UniProt:P08253). Entry: O=C1Nc2ccc(C#CCc3ccccc3)cc2S(=O)(=O)N1Cc1ccccc1
> 100 µM

###

SYSTEM_UNDER_TEST: MMP-9FL (full length Gelatinase B) (Homo sapiens, UniProt P14780)
Sequence (P14780 94-707, species assumed): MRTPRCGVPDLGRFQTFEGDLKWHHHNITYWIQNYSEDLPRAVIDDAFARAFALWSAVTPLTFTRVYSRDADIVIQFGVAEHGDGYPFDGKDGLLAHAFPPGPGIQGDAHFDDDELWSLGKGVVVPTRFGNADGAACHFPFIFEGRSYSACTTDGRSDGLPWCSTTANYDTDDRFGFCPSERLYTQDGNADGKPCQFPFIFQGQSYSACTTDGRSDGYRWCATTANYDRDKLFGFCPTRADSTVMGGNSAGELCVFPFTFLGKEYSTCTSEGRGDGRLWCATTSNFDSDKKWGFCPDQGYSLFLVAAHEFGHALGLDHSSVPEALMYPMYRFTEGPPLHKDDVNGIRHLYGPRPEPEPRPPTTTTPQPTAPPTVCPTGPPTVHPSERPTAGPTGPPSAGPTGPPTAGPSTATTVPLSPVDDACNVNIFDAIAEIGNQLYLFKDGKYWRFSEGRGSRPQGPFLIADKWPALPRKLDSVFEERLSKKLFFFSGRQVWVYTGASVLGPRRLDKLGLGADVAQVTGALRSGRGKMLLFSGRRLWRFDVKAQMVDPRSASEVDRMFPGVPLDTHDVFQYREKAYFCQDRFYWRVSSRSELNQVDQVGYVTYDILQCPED
ASSAY_DETAILS: Thiopeptolide hydrolysis assay, full length Gelatinase B
Format: biochemical
SETUP_CONDITIONS: Table 3; full-length MMP09
REPORTED_PROPERTY: IC50

Here is how some molecules turned out for IC50.
O=C(O)c1ccc(CN2C(=O)Nc3ccc(C#CCc4ccccc4)cc3S2(=O)=O)cc1 | > 100 µM
O=C1Nc2ccc(C#CCc3ccccc3)cc2S(=O)(=O)N1Cc1ccccc1 | > 30 µM
CN1C(=O)N(Cc2ccc(C(=O)O)cc2)S(=O)(=O)c2cc(C#CCc3ccccc3)ccc21 | > 30 µM
COc1ccc(CN2C(=O)Nc3ccc(C#CCc4ccccc4)cc3S2(=O)=O)cc1 | > 30 µM
CN1C(=O)N(Cc2ccccc2)S(=O)(=O)c2cc(C#CCc3ccccc3)ccc21 | > 100 µM

I'd like to know its IC50. The molecule in question is CN1c2ccc(C#CCc3ccccc3)cc2C(=O)N(Cc2ccc(C(=O)O)cc2)[S+]1[O-] (stereo not shown)
> 100 µM

I'd like to know its IC50. The molecule in question is CN1c2ccc(C#CCc3ccccc3)cc2C(=O)N(Cc2ccc(C(=O)O)cc2)S1(=O)=O
> 30 µM

###

SYSTEM_UNDER_TEST: MMP-13CD (catalytic domain of collagenase 3) (Homo sapiens)
ASSAY_DETAILS: Thiopeptolide hydrolysis assay, catalytic domain of collagenase 3
Type: biochemical
SETUP_CONDITIONS: Table 3; MMP-13 catalytic domain; read-out: IC50 (μM) MMP13 (CD)
Reported log10(IC50) is given for each of the following compounds.
Recorded IC50 (log10, µM)

Here is how some compounds turned out for log10(IC50).
COc1ccc(CN2C(=O)Nc3ccc(C#CCc4ccccc4)cc3S2(=O)=O)cc1 [Example 18] | -0.73
O=C1Nc2ccc(C#CCc3ccccc3)cc2S(=O)(=O)N1Cc1ccccc1 [Example 3] | -0.92
CN1c2ccc(C#CCc3ccccc3)cc2C(=O)N(Cc2ccc(C(=O)O)cc2)S1(=O)=O [Example 16] | -1.50

I'd like to know its log10(IC50). The compound in question is CN1c2ccc(C#CCc3ccccc3)cc2C(=O)N(Cc2ccc(C(=O)O)cc2)[S+]1[O-] (stereo not drawn) [Example 15]
-1.98

I'd like to know its log10(IC50). The compound in question is O=C(O)c1ccc(CN2C(=O)Nc3ccc(C#CCCc4ccccc4)cc3S2(=O)=O)cc1 [Example 19]
-1.10

I'd like to know its log10(IC50). The compound in question is O=C(O)c1ccc(CN2C(=O)Nc3ccc(C#CCc4ccccc4)cc3S2(=O)=O)cc1 [Example 17]
-2.29

###

SYSTEM_UNDER_TEST: MMP-14CD (catalytic domain of MMP-14) (Homo sapiens)
ASSAY_DETAILS: Thiopeptolide hydrolysis assay, catalytic domain of MMP-14
Format: biochemical
SETUP_CONDITIONS: Table 3; MMP-14 catalytic domain; read-out: IC50 (μM) MMP14 (CD)
Description: The assays measure the amount by which a test compound reduces the hydrolysis of a thiopeptolide substrate caused by a matrix metalloproteinase enzyme. […] Thiopeptolide substrates show virtually no decomposition or hydrolysis in the absence of a matrix metalloproteinase enzyme. […] The change in absorbance at 405 nm is monitored on a Thermo Max microplate reader (molecular Devices, Menlo Park, Calif.) at room temperature (22° C.). […]
REPORTED_PROPERTY: IC50

Here is how some compounds turned out for IC50.
CN1C(=O)N(Cc2ccc(C(=O)O)cc2)S(=O)(=O)c2cc(C#CCc3ccccc3)ccc21 | > 30 µM
COc1ccc(CN2C(=O)Nc3ccc(C#CCc4ccccc4)cc3S2(=O)=O)cc1 | > 30 µM
CN1C(=O)N(Cc2ccccc2)S(=O)(=O)c2cc(C#CCc3ccccc3)ccc21 | > 100 µM

# evaluate next
I'd like to know its IC50. The compound in question is O=C(O)c1ccc(CN2C(=O)Nc3ccc(C#CCc4ccccc4)cc3S2(=O)=O)cc1
> 30 µM

###

Reported IC50 is given for each of the following compounds.
SYSTEM_UNDER_TEST: MMP-13CD (catalytic domain of collagenase 3) (Homo sapiens)
ASSAY_DETAILS: Thiopeptolide hydrolysis assay, catalytic domain of collagenase 3
Assay type: biochemical
SETUP_CONDITIONS: Table 1; thiopeptolide substrate; read-out: IC50 (μM) Versus MMPs, MMP13 (CD)
Express the result in µM but write the number alone.

CN1C(=O)N(Cc2ccc(C(=O)O)cc2)S(=O)(=O)c2cc(C#CCc3ccccc3)ccc21 | 0.0042

# evaluate next
I'd like to know its IC50. The compound in question is CN1C(=O)N(Cc2ccccc2)S(=O)(=O)c2cc(C#CCc3ccccc3)ccc21
2.2

###

SYSTEM_UNDER_TEST: MMP-7FL (full length matrilysin) (Homo sapiens, UniProt P09237)
Sequence (P09237 95-267, species assumed): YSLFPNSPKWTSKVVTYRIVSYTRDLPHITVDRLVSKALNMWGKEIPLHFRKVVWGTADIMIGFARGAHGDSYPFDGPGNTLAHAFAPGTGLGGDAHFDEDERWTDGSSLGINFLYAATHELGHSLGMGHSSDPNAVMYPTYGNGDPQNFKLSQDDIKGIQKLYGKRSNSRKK
ASSAY_DETAILS: Thiopeptolide hydrolysis assay, full length matrilysin
Assay type: biochemical
SETUP_CONDITIONS: Table 3; full-length MMP07
Reported IC50 is given for each of the following compounds.

Here is how some compounds turned out for IC50.
CN1C(=O)N(Cc2ccccc2)S(=O)(=O)c2cc(C#CCc3ccccc3)ccc21 | > 30 µM
O=C(O)c1ccc(CN2C(=O)Nc3ccc(C#CCc4ccccc4)cc3S2(=O)=O)cc1 | 16 µM
CN1C(=O)N(Cc2ccc(C(=O)O)cc2)S(=O)(=O)c2cc(C#CCc3ccccc3)ccc21 | > 30 µM
CN1c2ccc(C#CCc3ccccc3)cc2C(=O)N(Cc2ccc(C(=O)O)cc2)[S+]1[O-] (stereo not shown) | 24 µM
O=C1Nc2ccc(C#CCc3ccccc3)cc2S(=O)(=O)N1Cc1ccccc1 | > 30 µM

Field: IC50 (MMP-7FL (full length matrilysin) (Homo sapiens, UniProt P09237)). Entry: CN1c2ccc(C#CCc3ccccc3)cc2C(=O)N(Cc2ccc(C(=O)O)cc2)S1(=O)=O
> 30 µM

Field: IC50 (MMP-7FL (full length matrilysin) (Homo sapiens, UniProt P09237)). Entry: COc1ccc(CN2C(=O)Nc3ccc(C#CCc4ccccc4)cc3S2(=O)=O)cc1
> 10 µM

###

SYSTEM_UNDER_TEST: MMP-3CD (catalytic domain of stromelysin) (Homo sapiens)
Sequence (P08254 100-272 limits assumed): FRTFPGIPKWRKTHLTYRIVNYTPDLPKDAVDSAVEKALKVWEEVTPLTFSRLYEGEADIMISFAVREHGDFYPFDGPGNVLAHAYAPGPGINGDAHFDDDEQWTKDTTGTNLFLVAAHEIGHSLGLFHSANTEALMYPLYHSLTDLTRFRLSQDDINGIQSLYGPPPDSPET
ASSAY_DETAILS: Thiopeptolide hydrolysis assay, catalytic domain of stromelysin
Format: biochemical
SETUP_CONDITIONS: Table 3; MMP03 catalytic domain
REPORTED_PROPERTY: IC50

CN1c2ccc(C#CCc3ccccc3)cc2C(=O)N(Cc2ccc(C(=O)O)cc2)S1(=O)=O | 12 µM
CN1c2ccc(C#CCc3ccccc3)cc2C(=O)N(Cc2ccc(C(=O)O)cc2)[S+]1[O-] (stereo not shown) | > 10 µM

I'd like to know its IC50. The compound in question is CN1C(=O)N(Cc2ccc(C(=O)O)cc2)S(=O)(=O)c2cc(C#CCc3ccccc3)ccc21
> 10 µM

I'd like to know its IC50. The compound in question is CN1C(=O)N(Cc2ccccc2)S(=O)(=O)c2cc(C#CCc3ccccc3)ccc21
> 30 µM

I'd like to know its IC50. The compound in question is O=C1Nc2ccc(C#CCc3ccccc3)cc2S(=O)(=O)N1Cc1ccccc1
> 30 µM

I'd like to know its IC50. The compound in question is O=C(O)c1ccc(CN2C(=O)Nc3ccc(C#CCc4ccccc4)cc3S2(=O)=O)cc1
5.6 µM

I'd like to know its IC50. The compound in question is COc1ccc(CN2C(=O)Nc3ccc(C#CCc4ccccc4)cc3S2(=O)=O)cc1
> 30 µM
